- Tested on: Human papillomavirus type 1a E7 protein (residues 1-88)
- Method: HPV1a E7 small-molecule binders, primary screen, biochemical, small-molecule microarray, residues 1-88, 635 nm (AID 1129)
- Test Parameters: small-molecule microarray binding, fluorescence 635 nm; higher = more signal
Tick y if composite z-score is 0.3 or greater. Tick n if composite z-score is less than 0.3.

- Molecule: "C=CCNC(=O)[C@@H]1[C@H]2C(=O)O[C@H](c3ccccc3)[C@H](c3ccccc3)N2[C@H](c2ccc(O)cc2)[C@@]12C(=O)Nc1ccc(C#Cc3ccc(OC)cc3)cc12"
  Label: "y"
- Molecule: "COC(=O)c1c2oc(c1C(=O)OC)C(=O)N[C@@H](C(C)C)Cn1nncc1C1(CCCCC1)NC(=O)N[C@H](CO)CC2"
  Label: "n"
- Molecule: "O=C1c2ccccc2C(=O)c2cc([C@H]3Oc4ccccc4S(=O)(=O)N4CCC[C@@H]34)ccc21"
  Label: "n"
- Molecule: "CCN(CC)c1ccc(N2CC=CC34O[C@@H]5C=CCOC(=O)[C@@H]5[C@H]3C(=O)N(C(C)CO)[C@@H]4C2=O)cc1 (some centres not stated)"
  Label: "n"
- Molecule: "Cc1ccc(S[C@]2(C(=O)NCC(C)C)CC(=O)N(C(C)C)[C@@H]2c2ccc(CO)cc2)cc1"
  Label: "n"
- Molecule: "C=CCC(OC(C)=O)[C@@H]1[C@@H](N(Cc2ccc(-c3ccccc3)cc2)C(=O)c2ccc(-c3ccccc3)cc2)c2cc(OCCCO)ccc2N1C(=O)c1ccc(-c2ccccc2)cc1 (some centres not stated)"
  Label: "n"
- Molecule: "C[N+](C)(C)CCCCNC(=O)[C@@H]1C[C@@H]2C(=O)NCC(=O)N2[C@@H]1c1cccc(OCCO)c1"
  Label: "y"
